Numbers sourced from ChEMBL document CHEMBL1240409.

Test system: DU-145
Measurement Description: Growth inhibition of human DU145 cells after 96 hrs by trypan blue exclusion assay
Type: functional
Assay Setup: DU-145, 96 h
Endpoint Name: GI50 (µM)

The cases that follow already have their GI50 on record.
{"Smiles Code": "O=C(/C(=C\\c1ccc(O)c(C(=O)O)c1)SCc1ccc(Br)cc1)c1ccc(Br)cc1", "GI50 (µM)": 10}
{"Smiles Code": "COc1ccccc1/C=C(\\C(=O)c1ccc(Cl)cc1)S(=O)(=O)c1ccc(C)cc1", "GI50 (µM)": 1}
{"Smiles Code": "COc1cc(OC)c(/C=C(/SCc2ccc(F)cc2)C(=O)c2ccc(Cl)cc2)c(OC)c1", "GI50 (µM)": 10}
{"Smiles Code": "O=C(C(=Cc1ccc(Br)cc1)SCc1ccccc1Cl)c1ccc(Cl)cc1", "GI50 (µM)": 10}
{"Smiles Code": "Cc1ccc(CS/C(=C/c2ccccc2F)C(=O)c2ccc(Cl)cc2)cc1", "GI50 (µM)": 10}

a: Cc1ccc(S/C(=C/c2c[nH]c3ccc(Cl)cc23)C(=O)c2ccc(Cl)cc2)cc1
b: O=C(/C(=C\c1ccc(Cl)cc1)SCc1ccccc1Cl)c1ccc(Cl)cc1
c: COc1ccc(S/C(=C/c2ccc(C)s2)C(=O)c2ccc(Cl)cc2)cc1
d: Nc1c(Br)cc(Br)cc1/C=C(\C(=O)c1ccc(Br)cc1)S(=O)(=O)c1ccc(Br)cc1
Order the 4 compounds from highest to lowest GI50. Enter labels, ranked according to the request.
c, d, b, a

P: O=C(/C(=C\c1ccc(Br)cc1)Sc1ccc(Br)cc1)c1ccc(Cl)cc1
Q: O=C(/C(=C\c1ccc(O)c([N+](=O)[O-])c1)SCc1ccc(Cl)cc1)c1ccc(Cl)cc1
Smaller GI50 value? Options are P and Q Output the label that corresponds to your choice.
P

I: O=C(/C(=C\c1ccc(Br)cc1)Sc1ccccc1Br)c1ccc(Br)cc1
II: Cc1ccc(CS/C(=C/c2ccccc2F)C(=O)c2ccc(Br)cc2)cc1
III: Cc1ccc(S/C(=C/c2cc(Cl)cc(Cl)c2Cl)C(=O)c2ccc(Cl)cc2)cc1
Order the 3 compounds from highest to lowest GI50. Enter labels, ranked according to the request.
III, II, I
(III: 50 µM, II: 10 µM, I: 1 µM)

I: O=C(O)c1ccc(C(=O)/C(=C\c2ccc(N3CCN(Cc4ccccc4)CC3)c([N+](=O)[O-])c2)SCc2ccc(F)cc2)cc1
II: Cc1ccc(CS/C(=C/c2ccc(Br)cc2)C(=O)c2ccc(Cl)cc2)cc1
Hi there! Just curious which has the higher GI50 between I and II . Output the label that corresponds to your choice.
II

###

System: DU-145
Measurement Description: Growth inhibition of human DU145 cells after 96 hrs by trypan blue exclusion assay
Type: functional
Assay Setup: DU-145, 96 h
Endpoint Name: GI50 (µM)

The cases that follow already have their GI50 on record.
{"Smiles Code": "O=C(O)c1ccc(C(=O)/C(=C\\c2ccc(O)c([N+](=O)[O-])c2)SCc2ccc(Br)cc2)cc1", "GI50, µM": 50}
{"Smiles Code": "CCOc1cc(/C=C(\\C(=O)c2ccc(Cl)cc2)S(=O)(=O)Cc2ccc(Cl)cc2)ccc1O", "GI50, µM": 10}
{"Smiles Code": "O=C(/C(=C\\c1ccc(O)c([N+](=O)[O-])c1)Sc1ccccc1Br)c1ccc(Br)cc1", "GI50, µM": 10}

P: COc1ccccc1/C=C(\C(=O)c1ccc(Cl)cc1)S(=O)(=O)Cc1ccc(C)cc1
Q: COc1ccc(/C=C(/Sc2ccc(Br)cc2)C(=O)c2ccc(Br)cc2)c(F)c1
Hi there! Just curious which has the higher GI50 between P and Q . Output the label that corresponds to your choice.
Q

a: O=C(/C(=C\c1ccc(O)cc1)SCc1ccc(F)cc1)c1ccc(Cl)cc1
b: O=C(/C(=C\c1c[nH]c2ccc(Br)cc12)SCc1ccc(F)cc1)c1ccc(Cl)cc1
c: Cc1ccc(S(=O)(=O)/C(=C/c2c[nH]c3ccc(Cl)cc23)C(=O)c2ccc(Br)cc2)cc1
d: O=C(O)c1ccc(C(=O)/C(=C\c2ccc(Cl)c([N+](=O)[O-])c2)SCc2ccc(Br)cc2)cc1
Endpoint returns the given compounds ordered by ascending GI50. Enter labels, ranked according to the request.
d, c, a, b
(d: 0.5 µM, c: 10 µM, a: 25 µM, b: 50 µM)

###

System Under Test: Proto-oncogene tyrosine-protein kinase Src (Homo sapiens, UniProt P12931)
Sequence (P12931 2-536 limits assumed): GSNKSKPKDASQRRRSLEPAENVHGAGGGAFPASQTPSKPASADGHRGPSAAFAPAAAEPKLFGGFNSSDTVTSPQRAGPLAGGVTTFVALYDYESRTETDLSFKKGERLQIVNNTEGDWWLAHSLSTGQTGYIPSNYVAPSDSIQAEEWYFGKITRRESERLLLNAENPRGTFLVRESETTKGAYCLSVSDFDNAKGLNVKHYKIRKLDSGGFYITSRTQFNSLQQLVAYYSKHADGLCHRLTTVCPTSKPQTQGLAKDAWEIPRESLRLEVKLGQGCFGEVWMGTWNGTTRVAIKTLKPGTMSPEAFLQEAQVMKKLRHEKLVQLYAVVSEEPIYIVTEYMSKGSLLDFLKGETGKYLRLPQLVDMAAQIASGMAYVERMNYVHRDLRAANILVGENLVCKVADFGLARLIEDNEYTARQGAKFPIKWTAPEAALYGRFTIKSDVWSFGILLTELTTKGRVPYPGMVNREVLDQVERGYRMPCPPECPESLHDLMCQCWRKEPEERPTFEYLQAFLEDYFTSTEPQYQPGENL
Measurement Description: Inhibition of GST-tagged recombinant Src after 20 mins by autoradiography
Endpoint Name: IC50 (µM)
Kindly provide the numeric value in µM only, without the unit symbol.

Fill in the blank: the reported IC50 of "O=C(O)c1ccc(C(=O)/C(=C\c2ccc(F)c([N+](=O)[O-])c2)SCc2ccc(Br)cc2)cc1" is ____.
13.2

###

Test system: DU-145
Measurement Description: Growth inhibition of human DU145 cells after 96 hrs by trypan blue exclusion assay
Format: functional
Assay Setup: DU-145, 96 h
Endpoint Name: GI50 (µM)

{"Smiles Code": "Cc1cc(C)cc(/C=C(\\C(=O)c2ccc(Cl)cc2)S(=O)(=O)c2ccc(Br)cc2)c1", "GI50 (µM)": 10}

a: O=C(/C(=C\c1cccc(Cl)c1Cl)SCc1ccc(Cl)cc1)c1ccc(Cl)cc1
b: O=C(O)c1ccc(C(=O)/C(=C\c2ccc(F)c([N+](=O)[O-])c2)SCc2ccc(Br)cc2)cc1
Smaller GI50 value? Options are a and b Output the label that corresponds to your choice.
b

###

System Under Test: Cyclin-dependent kinase 1 (Homo sapiens)
Sequence (P06493 whole entry): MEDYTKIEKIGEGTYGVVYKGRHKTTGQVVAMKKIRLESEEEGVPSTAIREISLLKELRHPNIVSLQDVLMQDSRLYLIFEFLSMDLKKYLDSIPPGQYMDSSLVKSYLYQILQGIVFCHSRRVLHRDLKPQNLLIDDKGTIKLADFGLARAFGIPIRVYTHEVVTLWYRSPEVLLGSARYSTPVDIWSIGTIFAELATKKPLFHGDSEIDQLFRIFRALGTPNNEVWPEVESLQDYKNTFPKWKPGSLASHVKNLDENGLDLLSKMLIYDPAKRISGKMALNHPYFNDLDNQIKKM
Measurement Description: Inhibition of GST-tagged recombinant CDK1 after 20 mins by autoradiography
pIC50: −log10 of the molar value.
Endpoint Name: pIC50

Fill in the blank: the reported pIC50 of "O=C(O)c1ccc(C(=O)/C(=C\c2ccc(F)c([N+](=O)[O-])c2)SCc2ccc(Br)cc2)cc1" is ____.
< 4.30

###

System: DU-145
Measurement Description: Growth inhibition of human DU145 cells after 96 hrs by trypan blue exclusion assay
Assay type: functional
Assay Setup: DU-145, 96 h
Endpoint Name: GI50 (µM)

The cases that follow already have their GI50 on record.
{"Smiles Code": "O=C(/C(=C\\c1ccc(F)c([N+](=O)[O-])c1)SCc1ccc(Br)cc1)c1ccc(C(=O)N2CCN(CCO)CC2)cc1", "Unit Abbrev": "µM", "GI50": 0.75}
{"Smiles Code": "O=C(/C(=C\\c1ccc(Cl)cc1)SCc1ccc(Cl)cc1)c1ccccc1Cl", "Unit Abbrev": "µM", "GI50": 30}
{"Smiles Code": "N#Cc1ccc(C(=O)/C(=C\\c2ccc(O)c([N+](=O)[O-])c2)SCc2ccc(Br)cc2)cc1", "Unit Abbrev": "µM", "GI50": 10}
{"Smiles Code": "COc1ccc(C(=O)/C(=C\\c2ccc(Cl)cc2)S(=O)(=O)c2ccc(Cl)cc2)cc1", "Unit Abbrev": "µM", "GI50": 4}
{"Smiles Code": "CSc1ccc(/C=C(/SCc2ccc(C)cc2)C(=O)c2ccc(Cl)cc2)cc1", "Unit Abbrev": "µM", "GI50": 25}

I: CCOc1ccc(/C=C(/SCc2ccc(Cl)c(Cl)c2)C(=O)c2ccc(Cl)cc2)cc1OC
II: CN1CCN(CCNC(=O)c2ccc(C(=O)/C(=C\c3ccc(F)c([N+](=O)[O-])c3)SCc3ccc(Br)cc3)cc2)CC1
Smaller GI50 value? Options are I and II Output the label that corresponds to your choice.
II
(II: 1 µM, I: 25 µM)

###

Tested on: DU-145
Measurement Description: Growth inhibition of human DU145 cells after 96 hrs by trypan blue exclusion assay
Format: functional
Assay Setup: DU-145, 96 h
Endpoint Name: GI50 (µM)

The cases that follow already have their GI50 on record.
{"Smiles Code": "Cc1ccc(C(=O)/C(=C\\c2ccc(N(C)C)cc2)S(=O)(=O)c2ccc(Cl)cc2)cc1", "System Under Test": "DU-145", "Unit Abbrev": "µM", "Numeric Readout": 50}
{"Smiles Code": "CN(C)c1ccc(/C=C(/SCc2ccc(Cl)c(Cl)c2)C(=O)c2ccc(Cl)cc2)cc1", "System Under Test": "DU-145", "Unit Abbrev": "µM", "Numeric Readout": 50}

P: CN(C)c1ccc(/C=C(/SCc2ccc(Cl)cc2Cl)C(=O)c2ccc(Cl)cc2)cc1
Q: Cc1ccc(C)c(/C=C(/SCc2ccc(F)cc2)C(=O)c2ccc(Br)cc2)c1
R: O=C(O)c1ccc(C(=O)/C(=C\c2ccc([N+](=O)[O-])c(O)c2)SCc2ccc(Br)cc2)cc1
Endpoint returns the given compounds ordered by ascending GI50. Enter labels, ranked according to the request.
Q, R, P

A: O=C(O)c1ccc(C(=O)/C(=C\c2ccc(Br)cc2)SCc2ccc(Br)cc2)cc1
B: COc1ccc(/C=C(\C(=O)c2ccc(Cl)cc2)S(=O)(=O)c2ccc(Br)cc2)cc1O
Hi there! Just curious which has the higher GI50 between A and B . Output the label that corresponds to your choice.
B
